src = PubChem BioAssay (NCI)

- System: NCI/ADR-RES ovarian
- TEST SUMMARY: NCI tumour cell line growth inhibition, 48 h
Item-by-item account of GI50

Here are 5 compounds together with their reported answers.
[[record]]
compound = "CCc1ccccc1-n1c(N)c(C#N)c(-c2ccc(OC)c(OC)c2)c(C#N)c1=O"
measured_value = "31.9 µM"

[[record]]
compound = "CCOC(=O)C(Cc1ccc(OC)cc1)C(=O)OCC"
measured_value = "3.77 µM"

[[record]]
compound = "CC[C@H](C)[C@H](NC(=O)C12CC(NC(C)=O)(C1)C2)C(=O)N(C)[C@H](C[C@@H](OC(C)=O)c1nc(C(=O)N[C@@H](Cc2ccccc2)C[C@H](C)C(=O)OC)cs1)C(C)C"
measured_value = "> 16.7 µM"

[[record]]
compound = "CCOc1cc(/C=N\\NC(=O)N/N=C/c2ccc(O)c(OCC)c2)ccc1O"
measured_value = "3.47 µM"

[[record]]
compound = "CC(C)CNc1nc(N=[N+]=[N-])nc(NCC(C)C)n1"
measured_value = "> 10 µM"


Ask: # get_value(readout='GI50', item= COc1ccc(-n2sc(=O)n(Cc3ccc(COC(=O)C(C)c4ccc(CC(C)C)cc4)cc3)c2=O)cc1 (stereo not given) )
Reply: 7.5 µM

Ask: # get_value(readout='GI50', item= C=C1C(=O)OC2CC3(C)OC3C3OC3C3=CC(OC3=O)C12 (stereo not given) )
Reply: 27.2 µM

Ask: # get_value(readout='GI50', item= Cc1cc2c(C(C)C)c(O)c(O)c(C=O)c2c(O)c1-c1c(C)cc2c(C(C)C)c(O)c(O)c(C=O)c2c1O (tested in a mixture with another compound) )
Reply: 0.825 µM

Ask: # get_value(readout='GI50', item= "C=C1CO[C@@H]2C[C@@H]1CC/C(C)=C/CC/C(C)=C/CC[C@@]2(C)O" )
Reply: 18.5 µM

Ask: # get_value(readout='GI50', item= CC1(C)CC2CC(C)(CN2c2ncnc3ccc(Br)cc23)C1 (stereo not given) )
Reply: 12.8 µM

###

- System: K-562 leukemia
- TEST SUMMARY: NCI tumour cell line growth inhibition, 48 h
REPORTED ENDPOINT: TGI

Here are 5 compounds together with their reported answers.
[[record]]
compound = "C=C1CC(C/C=C(\\C)CC2CC(=C)C(=O)O2)OC1=O (stereo unspecified)"
reported_endpoint = "TGI"
measured_value = "> 100 µM"

[[record]]
compound = "CCOc1cc(/C=N\\NC(=O)N/N=C/c2ccc(O)c(OCC)c2)ccc1O"
reported_endpoint = "TGI"
measured_value = "> 100 µM"

[[record]]
compound = "Cc1cc(C)c2[s+]snc2c1"
reported_endpoint = "TGI"
measured_value = "> 100 µM"

[[record]]
compound = "Cc1cc(=O)[nH]c2c3c(ccc12)OC(C)(C)C=C3"
reported_endpoint = "TGI"
measured_value = "> 100 µM"

[[record]]
compound = "COc1ccc(C2C(Cl)C(=O)N2NC(=O)c2ccc(N)cc2)cc1OC (stereo unspecified)"
reported_endpoint = "TGI"
measured_value = "16.5 µM"


Ask: Quick check: TGI on K-562 leukemia, item CCOc1ccc2c(c1)NC(=O)C(C1OC(c3ccccc3)=CC1=O)S2 (stereo unspecified) ?
Reply: 68.7 µM
